# System: MDA-MB-468 multi-cell spheroids, viability
# procedure_summary: Anticancer human tumor MDA-MB-468 cell line growth inhibition [IpAb]; active means viability on the fitted dose curve at most 10% of control; inactive means the rest
# condition_label: second compound 1 µM; first compound 0.3 µM
Choose the fitting class; nothing outside active, inactive is accepted.

- compound: "CC(=O)c1c(C)c2cnc(Nc3ccc(N4CCNCC4)cn3)nc2n(C2CCCC2)c1=O + CCN1CCN(Cc2ccc(Nc3ncc(F)c(-c4cc(F)c5nc(C)n(C(C)C)c5c4)n3)nc2)CC1"
  class_name: "inactive"
- compound: "CC(C)(C)c1cnc(CSc2cnc(NC(=O)C3CCNCC3)s2)o1 + CC(C)NCC(C(=O)N1CCN(c2ncnc3c2C(C)CC3O)CC1)c1ccc(Cl)cc1"
  class_name: "active"

Field: next compound
Record request — test call for CC(C)(C)c1cnc(CSc2cnc(NC(=O)C3CCNCC3)s2)o1 + CCN1CCN(Cc2ccc(Nc3ncc(F)c(-c4cc(F)c5nc(C)n(C(C)C)c5c4)n3)nc2)CC1
active

---

# System: MDA-MB-468 multi-cell spheroids, viability
# procedure_summary: Anticancer human tumor MDA-MB-468 cell line growth inhibition [IpAb]
# condition_label: second compound 0.316 µM; first compound 0.316 µM; hits give low values
Consider the cut-off 80%. If the recorded viability, T/C is strictly smaller, the label is Met; if not, the label is Not met.

Some solved cases for reference:
- compound: "CC1(C)CCC(CN2CCN(c3ccc(C(=O)NS(=O)(=O)c4ccc(NCC5CCOCC5)c([N+](=O)[O-])c4)c(Oc4cnc5[nH]ccc5c4)c3)CC2)=C(c2ccc(Cl)cc2)C1 + CC(C)NCC(C(=O)N1CCN(c2ncnc3c2C(C)CC3O)CC1)c1ccc(Cl)cc1"
  class_name: "Not met"
- compound: "C=CCn1c(=O)c2cnc(Nc3ccc(N4CCN(C)CC4)cc3)nc2n1-c1cccc(C(C)(C)O)n1 + CCN1CCN(Cc2ccc(Nc3ncc(F)c(-c4cc(F)c5nc(C)n(C(C)C)c5c4)n3)nc2)CC1"
  class_name: "Not met"
- compound: "CCCS(=O)(=O)Nc1ccc(F)c(C(=O)c2c[nH]c3ncc(-c4ccc(Cl)cc4)cc23)c1F + CC(C)NCC(C(=O)N1CCN(c2ncnc3c2C(C)CC3O)CC1)c1ccc(Cl)cc1"
  class_name: "Met"

Confirm or reject: viability, T/C of Cn1ncc(Cl)c1-c1cc(C(=O)NC(CN)Cc2cccc(F)c2)sc1Cl (stereo not given) + CCN1CCN(Cc2ccc(Nc3ncc(F)c(-c4cc(F)c5nc(C)n(C(C)C)c5c4)n3)nc2)CC1 lies strictly below 80%
Met

Confirm or reject: viability, T/C of Cc1nc(NC(=O)N2CCCC2C(N)=O)sc1-c1ccnc(C(C)(C)C(F)(F)F)c1 (stereo not given) + CC(C)NCC(C(=O)N1CCN(c2ncnc3c2C(C)CC3O)CC1)c1ccc(Cl)cc1 lies strictly below 80%
Met

---

# Test system: MDA-MB-468 multi-cell spheroids, viability
# procedure_summary: Anticancer human tumor MDA-MB-468 cell line growth inhibition [IpAb]; active = viability on the fitted dose curve at most 10% of control; inactive = the rest;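 further: spheroids exposed to agents for seven days; 100% = DMSO vehicle control viability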
# condition_label: second compound 3.16 µM; first compound 0.1 µM
Choose the fitting class; nothing outside active, inactive is accepted.

- compound: "CC(C)n1nc(-c2ccc3oc(N)nc3c2)c2c(N)ncnc21 + CC(C)NCC(C(=O)N1CCN(c2ncnc3c2C(C)CC3O)CC1)c1ccc(Cl)cc1"
  tested_on: "MDA-MB-468 multi-cell spheroids, viability"
  class_name: "active"

Record request — test call for Cn1ncnc1[C@H]1c2n[nH]c(=O)c3cc(F)cc(c23)N[C@@H]1c1ccc(F)cc1 + CC(C)NCC(C(=O)N1CCN(c2ncnc3c2C(C)CC3O)CC1)c1ccc(Cl)cc1
inactive

Record request — test call for Cn1nccc1Nc1nccc(-c2ccn(C(CO)c3ccc(Cl)c(F)c3)c(=O)c2)n1 (stereo not given) + CC(C)NCC(C(=O)N1CCN(c2ncnc3c2C(C)CC3O)CC1)c1ccc(Cl)cc1
inactive

Record request — test call for C=CC(=O)N1CCN(c2nc(=O)n(-c3c(C)ccnc3C(C)C)c3nc(-c4c(O)cccc4F)c(F)cc23)C(C)C1 (stereo not given) + CC(C)NCC(C(=O)N1CCN(c2ncnc3c2C(C)CC3O)CC1)c1ccc(Cl)cc1
inactive

Record request — test call for Cc1nc(NC(=O)N2CCCC2C(N)=O)sc1-c1ccnc(C(C)(C)C(F)(F)F)c1 (stereo not given) + CC(C)NCC(C(=O)N1CCN(c2ncnc3c2C(C)CC3O)CC1)c1ccc(Cl)cc1
inactive

---

# Test system: MDA-MB-468 multi-cell spheroids, viability
# procedure_summary: Anticancer human tumor MDA-MB-468 cell line growth inhibition [IpAb]; active = viability on the fitted dose curve at most 10% of control; inactive = the rest;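 further: spheroids exposed to agents for seven days; 100% = DMSO vehicle control viability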
# condition_label: second compound 0.316 µM; first compound 10 µM
Choose the fitting class; nothing outside T (active), F (inactive) is accepted.

Some solved cases for reference:
- molecule: "C=CC(=O)N1CCN(c2nc(=O)n(-c3c(C)ccnc3C(C)C)c3nc(-c4c(O)cccc4F)c(F)cc23)C(C)C1 (centres undefined) + CCN1CCN(Cc2ccc(Nc3ncc(F)c(-c4cc(F)c5nc(C)n(C(C)C)c5c4)n3)nc2)CC1"
  class_name: "F"
- molecule: "CC1(C)CCC(CN2CCN(c3ccc(C(=O)NS(=O)(=O)c4ccc(NCC5CCOCC5)c([N+](=O)[O-])c4)c(Oc4cnc5[nH]ccc5c4)c3)CC2)=C(c2ccc(Cl)cc2)C1 + CCN1CCN(Cc2ccc(Nc3ncc(F)c(-c4cc(F)c5nc(C)n(C(C)C)c5c4)n3)nc2)CC1"
  class_name: "T"
- molecule: "C=CCn1c(=O)c2cnc(Nc3ccc(N4CCN(C)CC4)cc3)nc2n1-c1cccc(C(C)(C)O)n1 + CC(C)NCC(C(=O)N1CCN(c2ncnc3c2C(C)CC3O)CC1)c1ccc(Cl)cc1"
  class_name: "T"

Record request — test call for Cn1nccc1Nc1nccc(-c2ccn(C(CO)c3ccc(Cl)c(F)c3)c(=O)c2)n1 (centres undefined) + CCN1CCN(Cc2ccc(Nc3ncc(F)c(-c4cc(F)c5nc(C)n(C(C)C)c5c4)n3)nc2)CC1
F

---

# Test system: MDA-MB-468 multi-cell spheroids, viability
# procedure_summary: Anticancer human tumor MDA-MB-468 cell line growth inhibition [IpAb];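 further: spheroids exposed to agents for seven days; 100% = DMSO vehicle control viability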
# condition_label: second compound 0.1 µM; first compound 0.01 µM; hits give low values
readout_name: viability, T/C (%)
Express your answer in %, writing the number without its unit.

Reference set, count: 5
- compound: "COc1c(OCCCN2CCOCC2)ccc2c3n(c(=NC(=O)c4cnc(N)nc4)nc12)CCN3 + CC(C)NCC(C(=O)N1CCN(c2ncnc3c2C(C)CC3O)CC1)c1ccc(Cl)cc1"
  tested_on: "MDA-MB-468 multi-cell spheroids, viability"
  result_unit: "%"
  viability, T/C: 78.2
- compound: "COc1c(OCCCN2CCOCC2)ccc2c3n(c(=NC(=O)c4cnc(N)nc4)nc12)CCN3 + CCN1CCN(Cc2ccc(Nc3ncc(F)c(-c4cc(F)c5nc(C)n(C(C)C)c5c4)n3)nc2)CC1"
  tested_on: "MDA-MB-468 multi-cell spheroids, viability"
  result_unit: "%"
  viability, T/C: 93.8
- compound: "CC(C)n1nc(-c2ccc3oc(N)nc3c2)c2c(N)ncnc21 + CC(C)NCC(C(=O)N1CCN(c2ncnc3c2C(C)CC3O)CC1)c1ccc(Cl)cc1"
  tested_on: "MDA-MB-468 multi-cell spheroids, viability"
  result_unit: "%"
  viability, T/C: 38.7
- compound: "Cn1ncnc1[C@H]1c2n[nH]c(=O)c3cc(F)cc(c23)N[C@@H]1c1ccc(F)cc1 + CC(C)NCC(C(=O)N1CCN(c2ncnc3c2C(C)CC3O)CC1)c1ccc(Cl)cc1"
  tested_on: "MDA-MB-468 multi-cell spheroids, viability"
  result_unit: "%"
  viability, T/C: 73.8
- compound: "Cn1ncnc1[C@H]1c2n[nH]c(=O)c3cc(F)cc(c23)N[C@@H]1c1ccc(F)cc1 + CCN1CCN(Cc2ccc(Nc3ncc(F)c(-c4cc(F)c5nc(C)n(C(C)C)c5c4)n3)nc2)CC1"
  tested_on: "MDA-MB-468 multi-cell spheroids, viability"
  result_unit: "%"
  viability, T/C: 97.5

--- query ---
Dear colleague, I am looking for the recorded viability, T/C of the following compound: CC(C)n1nc(-c2ccc3oc(N)nc3c2)c2c(N)ncnc21 + CCN1CCN(Cc2ccc(Nc3ncc(F)c(-c4cc(F)c5nc(C)n(C(C)C)c5c4)n3)nc2)CC1
54

---

# Tested on: MDA-MB-468 multi-cell spheroids, viability
# procedure_summary: Anticancer human tumor MDA-MB-468 cell line growth inhibition [IpAb];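 further: spheroids exposed to agents for seven days; 100% = DMSO vehicle control viability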
# condition_label: second compound 0.1 µM; first compound 0.0949 µM; hits give low values
# viability, T/C values compiled below
Express your answer in %, writing the number without its unit.

Reference set, count: 2
- molecule: "CC(=O)c1c(C)c2cnc(Nc3ccc(N4CCNCC4)cn3)nc2n(C2CCCC2)c1=O + CC(C)NCC(C(=O)N1CCN(c2ncnc3c2C(C)CC3O)CC1)c1ccc(Cl)cc1"
  observed_measurement: 71.4
- molecule: "Cn1cnc2c(F)c(Nc3ccc(Br)cc3Cl)c(C(=O)NOCCO)cc21 + CCN1CCN(Cc2ccc(Nc3ncc(F)c(-c4cc(F)c5nc(C)n(C(C)C)c5c4)n3)nc2)CC1"
  observed_measurement: 81.3

--- query ---
Dear colleague, I am looking for the recorded viability, T/C of the following molecule: Cn1cnc2c(F)c(Nc3ccc(Br)cc3Cl)c(C(=O)NOCCO)cc21 + CC(C)NCC(C(=O)N1CCN(c2ncnc3c2C(C)CC3O)CC1)c1ccc(Cl)cc1
63.4
